- Study System: T1, recombinant human TL1A (human, UniProt O95150 71-251)
- T1 construct: homotrimer; biotinylated for SPR capture; the ELISA paragraphs say only 'recombinant TL1A'; also called TNFSF15
- T1 chain: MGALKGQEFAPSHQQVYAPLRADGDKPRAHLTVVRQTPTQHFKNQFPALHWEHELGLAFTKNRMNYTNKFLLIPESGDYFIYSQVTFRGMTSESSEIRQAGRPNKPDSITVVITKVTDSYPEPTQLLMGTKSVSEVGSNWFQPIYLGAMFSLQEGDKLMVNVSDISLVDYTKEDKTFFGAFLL
- Assay Info: competition ELISA vs bio-TL1A-0002
Assay Readout: pIC50
Just the number, please; pIC50 means minus log10 of the concentration in mol/L.

Use the examples below as a reference point.
• TL1A-0030 (antibody, IgG1, V domains shown, IgG1/kappa variant of TL1A-0002) VH: QVQLVQSGAEVKKPGASVKVSCKASGYDFTYYGISWVRQAPGQGLEWMGWISTYNGNTHYARMLQGRVTMTTDTSTRTAYMELRSLRSDDTAVYYCARENYYGSGEYRGGMDVWGQGTTVTVSS VL: EIVLTQSPATLSLSPGERATLSCRASQSVSSYLAWYQQKPGQAPRLLIYDASNRATGIPARFSGSGSGTDFTLTISSLEPEDFAVYYCQQRSNWPWTFGQGTKVEIKR = 8.21
• TL1A-0068 (antibody, IgG1, V domains shown, IgG1/kappa variant of TL1A-0002) VH: QVQLVQSGAEVKKPGASVKVSCKASGYDFTKYGISWVRQAPGQGLEWMGWISTYNGNTHYARMLQGRVTMTTDTSTRTAYMELRSLRSDDTAVYYCARENYYGSGAYRGGMDVWGQGTTVTVSS VL: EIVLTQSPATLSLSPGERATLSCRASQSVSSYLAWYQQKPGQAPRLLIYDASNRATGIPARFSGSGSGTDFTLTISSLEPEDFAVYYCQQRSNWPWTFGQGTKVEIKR = 8.34

Now examine the next entry.
Exam item: Record request: pIC50 value, item TL1A-0096 (antibody, IgG1, V domains shown, IgG1/kappa variant of TL1A-0002) VH: QVQLVQSGAEVKKPGASVKVSCKASGYDFTYYGISWVRQAPGQGLEWMGWISTYNGNTHYARMLQGRVTMTTDTSTRTAYMELRSLRSDDTAVYYCAREVYYGSGAYRGGMDVWGQGTTVTVSS VL: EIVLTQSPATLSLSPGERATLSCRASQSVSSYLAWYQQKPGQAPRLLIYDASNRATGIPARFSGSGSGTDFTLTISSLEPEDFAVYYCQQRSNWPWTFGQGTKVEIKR
Marked response: 7.99
